For each entry below, report its Growth Rate value.
System: Fibroblast
ASSAY EXPLANATION: Incucyte cell viability with human fibroblast; note: unitless GR value; below 1 slowed growth and below 0 cell loss
Type: toxicity, cell-based
STUDY CONDITIONS: 18 h, 10 µM, compound concentration 10 uM, replicate number 2
Form: value (number only, do not type unit).

### Prompt // Growth Rate lookup, key: CC[C@H]1[C@@H](O)[C@@H]2[C@H](CC[C@]3(C)[C@@H]([C@H](C)CCC(=O)O)CC[C@@H]23)[C@@]2(C)CC[C@@H](O)C[C@@H]12 [OBETICHOLIC ACID]
### Response 0.87

### Prompt Another: c1ccc2c(-c3coc4cc(-c5ccc(N6CCNCC6)cc5)cnc34)ccnc2c1
### Response 0.28

### Prompt Another: CC#CC(=O)N1CCN(c2nc(-c3ccc(Oc4ccccc4)cc3)c(C(N)=O)s2)CC1
### Response 0.4

### Prompt Another: CCn1c(CNC(=O)c2nc(Cl)cnc2N)[n+](CC)c2ccc(C(=O)N(C)CCN(C)C)cc21.[Cl-]
### Response 0.7
